tested on: 786-0 renal; test: NCI tumour cell line growth inhibition, 48 h
Catalogue of compounds with associated TGI
READOUT LABEL: TGI

>>> print(df.to_string())
                                 mol_smiles  measurement_target  readout_label  data_value
0  O=C1CCc2c(sc3[nH]c(=S)n(Cc4ccc(Cl)cc4)c(=O)c23)C1         786-0 renal            TGI    > 100 µM
1  CCOC(=O)c1c(N2CCOCC2)[nH]c(=O)c(C(c2ccco2)c2c(O)c(C(=O)OCC)c(N3CCOCC3)[nH]c2=O)c1O         786-0 renal            TGI    > 100 µM
2  O=Cc1c(O)c(C(=O)Nc2ccc3[nH]c(=O)[nH]c3c2)cc2ccccc12         786-0 renal            TGI    > 100 µM

Where these numbers come from: PubChem BioAssay (NCI)
